Assay Name: Plasma pharmacokinetics of resminostat in patients
Assay type: in vivo, human
Test Parameters: human, plasma, po, 200 mg, Half-life, day 1, single oral administration, 200 mg, N=3; geometric mean (68% range); free-base
Experimental Readout: half-life (h)
Please give a number only; it is taken to be in h.

Looking up CN(C)Cc1ccc(S(=O)(=O)n2ccc(/C=C/C(=O)NO)c2)cc1 [resminostat] , I see its half-life listed as 3.12

----------
Assay Name: Plasma pharmacokinetics of resminostat in patients
Assay type: in vivo, human
Test Parameters: human, plasma, po, 800 mg, Cmax, day 5, multiple oral administration, 800 mg, N=6; geometric mean (68% range); free-base
Experimental Readout: Cmax (ng/mL)
Use ng/mL as the unit, but write only the number.

Record CN(C)Cc1ccc(S(=O)(=O)n2ccc(/C=C/C(=O)NO)c2)cc1 [resminostat] . Reported Cmax: 4510

----------
Assay Name: Plasma pharmacokinetics of resminostat in patients
Format: in vivo, human
Test Parameters: human, plasma, po, 400 mg
Experimental Readout: Tmax (h)
Write the number in h without appending the unit.

Value of Tmax reported for the compound CN(C)Cc1ccc(S(=O)(=O)n2ccc(/C=C/C(=O)NO)c2)cc1 [resminostat] is 2.5

----------
Assay Name: Plasma pharmacokinetics of resminostat in patients
Assay type: in vivo, human
Test Parameters: human, plasma, po, 800 mg, Half-life, day 1, single oral administration, 800 mg, N=7; geometric mean (68% range); free-base
Experimental Readout: half-life (h)
Quick reminder: number only, in h, skip the unit.

Looking up `CN(C)Cc1ccc(S(=O)(=O)n2ccc(/C=C/C(=O)NO)c2)cc1` , I found its half-life recorded as 2.81

----------
Assay Name: Plasma pharmacokinetics of resminostat in patients
Assay type: in vivo, human
Test Parameters: human, plasma, po, 100 mg, Cmax, day 5, multiple oral administration, 100 mg, N=3; geometric mean (68% range); free-base
Experimental Readout: Cmax (ng/mL)
A number alone suffices; assume ng/mL.

Short answer for `CN(C)Cc1ccc(S(=O)(=O)n2ccc(/C=C/C(=O)NO)c2)cc1` : Cmax was 373

----------
Assay Name: Plasma pharmacokinetics of resminostat in patients
Type: in vivo, human
Test Parameters: human, plasma, po, 600 mg
Experimental Readout: Tmax (h)
Report the figure in h without appending any unit label.

// Tmax value for CN(C)Cc1ccc(S(=O)(=O)n2ccc(/C=C/C(=O)NO)c2)cc1 [resminostat] : 2.5

----------
Assay Name: Plasma pharmacokinetics of resminostat in patients
Format: in vivo, human
Test Parameters: human, plasma, po, 600 mg, Half-life, day 1, single oral administration, 600 mg, N=3; geometric mean (68% range); free-base
Experimental Readout: half-life (min)
API: value field is a number in min; no unit string.

get_value(item= CN(C)Cc1ccc(S(=O)(=O)n2ccc(/C=C/C(=O)NO)c2)cc1 [resminostat] , readout=half-life) returns 170

----------
Assay Name: Plasma pharmacokinetics of resminostat in patients
Format: in vivo, human
Test Parameters: human, plasma, po, 100 mg
Experimental Readout: Tmax (h)
Provide the reading as a plain figure in h.

Quick note, Tmax for `CN(C)Cc1ccc(S(=O)(=O)n2ccc(/C=C/C(=O)NO)c2)cc1` landed at 2

----------
Assay Name: Plasma pharmacokinetics of resminostat in patients
Assay type: in vivo, human
Test Parameters: human, plasma, po, 400 mg
Experimental Readout: AUC(0-inf) (ng·h/mL)
A number alone suffices; assume ng·h/mL.

So, `CN(C)Cc1ccc(S(=O)(=O)n2ccc(/C=C/C(=O)NO)c2)cc1` ? Its AUC(0-inf) was 7630
